tested on: Enterococcus faecium; experiment: In vitro minimum inhibitory concentration against vancomycin-resistant Enterococcus faecium 6A after incubation in air at 35 degree C for 24 hr using agar dilution method; format: functional

compound: CC(=O)NC[C@H]1CN(c2ccc(N3CCCN(Cc4ccc([N+](=O)[O-])o4)CC3)c(F)c2)C(=O)O1.Cl
MIC: 2 µg/mL
--
compound: CC(=O)NC[C@H]1CN(c2ccc(N3CCN(Cc4ccc(COC(C)=O)o4)CC3)c(F)c2)C(=O)O1
MIC: > 16 µg/mL
--
compound: CC(=O)NC[C@H]1CN(c2ccc(N3CCN(Cc4ccc([N+](=O)[O-])n4C)CC3)c(F)c2)C(=O)O1
MIC: 4 µg/mL
--
compound: CC(=O)NC[C@H]1CN(c2ccc(N3CCN(Cc4ccoc4[N+](=O)[O-])CC3)c(F)c2)C(=O)O1
MIC: 4 µg/mL
--
compound: CC(=O)NC[C@H]1CN(c2ccc(N3CCC(N(C)c4ccc([N+](=O)[O-])o4)C(C)C3)c(F)c2)C(=O)O1 (stereo partly drawn)
MIC: > 16 µg/mL
--
compound: CC(=O)NC[C@H]1CN(c2ccc(N3CCN(Cc4ccc(/C=N/O)o4)CC3)c(F)c2)C(=O)O1
MIC: 8 µg/mL
--
compound: CC(=O)NC[C@H]1CN(c2ccc(N3CCC(N(C(C)=O)c4ccc([N+](=O)[O-])o4)CC3)c(F)c2)C(=O)O1
MIC: > 16 µg/mL
--
compound: CC(=O)NC[C@H]1CN(c2ccc(N3CCN(Cc4ccc(C=O)o4)CC3)c(F)c2)C(=O)O1
MIC: 8 µg/mL
